Tested on: soybean (Glycine max L., var. Pella 86, SOY)
assay explanation: Post-emerge greenhouse test, crop damage rating
Type: in vivo
Parameters: key: 0-100 scale: 0 = no damage, 100 = complete death of all plants
condition notes: rate 250 g ai/ha, 14 days after application, scale 0-100
result type: crop damage rating SOY

Consider the compound Nc1cccnc1Oc1cc(-n2c(=O)n3n(c2=S)CCCC3)c(F)cc1Cl and give its recorded crop damage rating SOY.
60

Consider the compound CCOC(=O)C(C)Oc1ccc(Oc2cc(-n3c(=O)n4n(c3=O)CCCC4)c(F)cc2Cl)c([N+](=O)[O-])c1 (stereo not drawn) and give its recorded crop damage rating SOY.
60

Consider the compound CCOC(=O)C(C)Oc1cc([N+](=O)[O-])c(Oc2cc(-n3c(=O)n4n(c3=S)CCCC4)c(F)cc2Cl)cc1Cl (stereo not drawn) and give its recorded crop damage rating SOY.
20

Consider the compound CCOC(=O)C(C)Oc1ccc(Oc2cc(-n3c(=O)n4n(c3=S)CCCC4)c(F)cc2Cl)c(N)c1 (stereo not drawn) and give its recorded crop damage rating SOY.
60

Consider the compound O=c1n(-c2cc(Oc3ncc([N+](=O)[O-])s3)c(Cl)cc2F)c(=S)n2n1CCCC2 and give its recorded crop damage rating SOY.
90

Consider the compound CSc1cccnc1Oc1cc(-n2c(=O)n3n(c2=S)CCCC3)c(F)cc1Cl and give its recorded crop damage rating SOY.
100

###

System: upland rice (Oryza sp., var.Tebonnet, RICE)
assay explanation: Pre-emerge greenhouse test, crop damage rating
Format: in vivo
condition notes: Rate 500 g al/ha, 14 days after application, rating scale 0-100
Note to self: use rule met only for RICE crop damage rating readings below 90; a reading exactly at 90 still gets rule not met.

Item N#Cc1ccc(Oc2cc(-n3c(=O)n4n(c3=S)CCCC4)c(F)cc2Cl)nc1 : RICE crop damage rating beneath 90, strictly?
rule met

Item COc1cc(OC)nc(Oc2cc(-n3c(=O)n4n(c3=S)CCCC4)c(F)cc2Cl)n1 : RICE crop damage rating beneath 90, strictly?
rule met

Item O=c1n(-c2cc(Oc3nc(Cl)ccc3C(F)(F)F)c(Cl)cc2F)c(=S)n2n1CCCC2 : RICE crop damage rating beneath 90, strictly?
rule met

Item N#Cc1cccnc1Oc1cc(-n2c(=O)n3n(c2=S)CCCC3)c(F)cc1Cl : RICE crop damage rating beneath 90, strictly?
rule met

Item CC(C)S(=O)(=O)c1cccnc1Oc1cc(-n2c(=O)n3n(c2=S)CCCC3)c(F)cc1Cl : RICE crop damage rating beneath 90, strictly?
rule met

Item Nn1c(C(F)(F)F)cc(=O)n(-c2cc(Oc3cccc(F)n3)c(Cl)cc2F)c1=O : RICE crop damage rating beneath 90, strictly?
rule not met

###

Test system: Johnsongrass (Sorghum halepense, SORHA)
assay explanation: Post-emerge greenhouse herbicide test, phytotoxicity rating
Format: in vivo
condition notes: 1000 g al/ha, 14 days after application
Method: A standard greenhouse herbicide activity screening system was used to evaluate the herbicidal efficacy and crop safety of these test compounds. […] At 14 days after application of the test materials, phytotoxicity ratings were recorded. […]
Give SORHA phytotoxicity rating (0-100) for every item shown.
Would you mind answering with just the numeric figure?

Consider the compound O=c1cc2n(c(=O)n1-c1cc(Oc3ncccc3[N+](=O)[O-])c(Cl)cc1F)CCC2 [Compound 5-8] and give its recorded SORHA phytotoxicity rating (0-100).
0

Consider the compound O=c1cc2n(c(=O)n1-c1cc(Oc3ccccc3[N+](=O)[O-])c(Cl)cc1F)CCC2 [Compound 5-1] and give its recorded SORHA phytotoxicity rating (0-100).
10

Consider the compound Nc1ccc(Oc2cc(-n3c(=O)cc4n(c3=O)CCC4)c(F)cc2Cl)cc1 [Compound 5-3] and give its recorded SORHA phytotoxicity rating (0-100).
0

Consider the compound O=c1cc2n(c(=O)n1-c1cc(Oc3ccc([N+](=O)[O-])cc3)c(Cl)cc1F)CCC2 [Compound 5-2] and give its recorded SORHA phytotoxicity rating (0-100).
0

Consider the compound N#Cc1ccc(Oc2cc(-n3c(=O)cc4n(c3=O)CCC4)c(F)cc2Cl)nc1 [Compound 5-11] and give its recorded SORHA phytotoxicity rating (0-100).
20

Consider the compound O=c1cc2n(c(=O)n1-c1cc(Oc3ncccc3C(F)(F)F)c(Cl)cc1F)CCC2 [Compound 5-10] and give its recorded SORHA phytotoxicity rating (0-100).
70

Consider the compound CCOC(=O)C(C)Oc1ccc(Oc2cc(-n3c(=O)cc4n(c3=O)CCC4)c(F)cc2Cl)cc1 (centres unmarked) [Compound 5-6] and give its recorded SORHA phytotoxicity rating (0-100).
95

Consider the compound N#Cc1cccnc1Oc1cc(-n2c(=O)cc3n(c2=O)CCC3)c(F)cc1Cl [Compound 5-9] and give its recorded SORHA phytotoxicity rating (0-100).
0

###

System: ivyleaf morningglory (Ipomoea hederacea, IPOHE)
assay explanation: Post-emerge greenhouse herbicide test, phytotoxicity rating
Type: in vivo
condition notes: 500 g al/ha, 14 days after application
result type: IPOHE phytotoxicity rating (0-100)
Would you mind answering with just the numeric figure?

Consider the compound N#Cc1ccccc1Oc1cc(-n2c(=O)n3n(c2=S)CCCC3)c(F)cc1Cl [Compound 8-7] and give its recorded IPOHE phytotoxicity rating (0-100).
100

Consider the compound N#Cc1cccnc1Oc1cc(-n2nnn(CCCF)c2=O)c(F)cc1Cl [Compound 6-4] and give its recorded IPOHE phytotoxicity rating (0-100).
85

Consider the compound Cn1c(C(F)(F)F)nc(-c2cc(Oc3ncccc3C(F)(F)F)c(Cl)cc2F)c1Cl [Compound 2-2] and give its recorded IPOHE phytotoxicity rating (0-100).
75

Consider the compound N#Cc1cccnc1Oc1cc(-n2nnn(CCCF)c2=O)c(Cl)cc1Cl [Compound 6-5] and give its recorded IPOHE phytotoxicity rating (0-100).
0

###

Test system: green foxtail (Setaria viridis, SETVI)
assay explanation: Post-emerge greenhouse herbicide test, phytotoxicity rating
Format: in vivo
condition notes: Setaria viridis, post-emergence, 336 h, rate 63 g ai/ha, 14 days after application, scale 0-100
Method: A standard greenhouse herbicide activity screening system was used to evaluate the herbicidal efficacy and crop safety of these test compounds. […] At 14 days after application of the test materials, phytotoxicity ratings were recorded. […]
result type: pest or weed control at 63 g/ha (%)
Quick note: give the figure in %, leave out the unit.

Consider the compound Nn1c(C(F)(F)F)cc(=O)n(-c2cc(Oc3ncccn3)c(Cl)cc2F)c1=O and give its recorded pest or weed control at 63 g/ha.
100

Consider the compound Nn1c(C(F)(F)F)cc(=O)n(-c2cc(Oc3ccccc3)c(Cl)cc2F)c1=O and give its recorded pest or weed control at 63 g/ha.
100

Consider the compound O=c1n(-c2cc(Oc3ncccc3C(F)(F)F)c(Cl)cc2F)c(=S)n2n1CCCC2 and give its recorded pest or weed control at 63 g/ha.
40

Consider the compound Nn1c(C(F)(F)F)cc(=O)n(-c2cc(Oc3cccc(Cl)n3)c(Cl)cc2F)c1=O and give its recorded pest or weed control at 63 g/ha.
30

Consider the compound Nn1c(C(F)(F)F)cc(=S)n(-c2cc(Oc3ccc(Cl)cn3)c(Cl)cc2F)c1=O and give its recorded pest or weed control at 63 g/ha.
25

Consider the compound N#Cc1cccnc1Oc1cc(-n2c(=O)cc(C(F)(F)F)n(N)c2=O)c(F)cc1Cl and give its recorded pest or weed control at 63 g/ha.
20

Consider the compound Nn1c(C(F)(F)F)cc(=O)n(-c2cc(Oc3ncccc3C(F)(F)F)c(Cl)cc2F)c1=O and give its recorded pest or weed control at 63 g/ha.
40

Consider the compound Nn1c(C(F)(F)F)cc(=O)n(-c2cc(Oc3ccccc3[N+](=O)[O-])c(Cl)cc2F)c1=O and give its recorded pest or weed control at 63 g/ha.
90

Consider the compound Nn1c(C(F)(F)F)cc(=O)n(-c2cc(Oc3ncccc3[N+](=O)[O-])c(Cl)cc2F)c1=O and give its recorded pest or weed control at 63 g/ha.
20

Consider the compound Nn1c(C(F)(F)F)cc(=O)n(-c2cc(Oc3ccc([N+](=O)[O-])cc3C(F)(F)F)c(Cl)cc2F)c1=O and give its recorded pest or weed control at 63 g/ha.
10

Consider the compound O=c1n(-c2cc(Oc3ncccn3)c(Cl)cc2F)c(=S)n2n1CCCC2 and give its recorded pest or weed control at 63 g/ha.
90

Consider the compound Cc1nsc(Oc2cc(-n3c(=O)cc(C(F)(F)F)n(N)c3=O)c(F)cc2Cl)c1[N+](=O)[O-] and give its recorded pest or weed control at 63 g/ha.
80

Consider the compound Nn1c(C(F)(F)F)cc(=O)n(-c2cc(Oc3ccc(Cl)cn3)c(Cl)cc2F)c1=O and give its recorded pest or weed control at 63 g/ha.
20

Consider the compound N#Cc1ccc(Oc2cc(-n3c(=O)cc(C(F)(F)F)n(N)c3=O)c(F)cc2Cl)nc1 and give its recorded pest or weed control at 63 g/ha.
20

Consider the compound Nn1c(C(F)(F)F)cc(=O)n(-c2cc(Oc3nc(F)c(F)cc3F)c(Cl)cc2F)c1=O and give its recorded pest or weed control at 63 g/ha.
20

Consider the compound Nn1c(C(F)(F)F)cc(=O)n(-c2cc(Oc3nccc(Cl)n3)c(Cl)cc2F)c1=O and give its recorded pest or weed control at 63 g/ha.
10

The measurements presented in this section are drawn from patent US6479435B1.
